Known normalized growth of a selection of compounds
Measurement protocol: chemical genetic growth profiling, strain panel (AID 1159580);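 further: tested at 20 µM; growth read once vehicle control cultures reached saturation at 30 °C; 1 = growth at the plate median or of vehicle wells; lower values mean less growth of the strain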
Condition description: S. cerevisiae deletion strains, growth OD, locus YLR262C, strain YPT6, active compounds read low
Screen size: about 5,500 compounds; about 2,000 (36%) were called active. About 18% were inconclusive and are not listed. Some of the results follow.
Number only, no unit.

Please review the entries below; each comes with its answer.
CC(C)(OC(=O)c1ccccc1)[C@@H]1Cc2cc3ccc(=O)oc3cc2O1 | 1.02
CCOC(=O)c1[nH]c(Cc2[nH]c(C(=O)OCC)c(C)c2C)c(C)c1C | 0.981
COCCc1ccc(OCC(O)CNC(C)C)cc1 (stereo not given) | 1

Exam item: Which normalized growth is listed for COc1cc(C(F)(F)F)cc(C(F)(F)F)c1C(=O)Nc1cc(C(F)(F)F)cc(C(F)(F)F)c1 ?
Marked response: 1.01

Exam item: Quick one: normalized growth of CC(C)(C)C(=O)Nc1ccc(F)cc1 ?
Marked response: 1.01
